Data credit: patent US20260345623A1

target: spliced XBP1 mRNA (target of IRE endonuclease) in MCF-7 cancer cells (Homo sapiens, UniProt O75460); construct: tunicamycin ER stress; RT-PCR of spliced XBP1 mRNA (RNase domain activity); experiment: Spliced XBP1 mRNA Measurement Test (RT-PCR, tunicamycin-induced ER stress, MCF-7 cells); type: cell-based; conditions: 1 hour pre-treatment with compound, 2 μg/mL tunicamycin 6 or 24 hours, spliced XBP1 corrected by total XBP1, read-out: XBP1 mRNA (IC50)
Sequence (O75460 19-977): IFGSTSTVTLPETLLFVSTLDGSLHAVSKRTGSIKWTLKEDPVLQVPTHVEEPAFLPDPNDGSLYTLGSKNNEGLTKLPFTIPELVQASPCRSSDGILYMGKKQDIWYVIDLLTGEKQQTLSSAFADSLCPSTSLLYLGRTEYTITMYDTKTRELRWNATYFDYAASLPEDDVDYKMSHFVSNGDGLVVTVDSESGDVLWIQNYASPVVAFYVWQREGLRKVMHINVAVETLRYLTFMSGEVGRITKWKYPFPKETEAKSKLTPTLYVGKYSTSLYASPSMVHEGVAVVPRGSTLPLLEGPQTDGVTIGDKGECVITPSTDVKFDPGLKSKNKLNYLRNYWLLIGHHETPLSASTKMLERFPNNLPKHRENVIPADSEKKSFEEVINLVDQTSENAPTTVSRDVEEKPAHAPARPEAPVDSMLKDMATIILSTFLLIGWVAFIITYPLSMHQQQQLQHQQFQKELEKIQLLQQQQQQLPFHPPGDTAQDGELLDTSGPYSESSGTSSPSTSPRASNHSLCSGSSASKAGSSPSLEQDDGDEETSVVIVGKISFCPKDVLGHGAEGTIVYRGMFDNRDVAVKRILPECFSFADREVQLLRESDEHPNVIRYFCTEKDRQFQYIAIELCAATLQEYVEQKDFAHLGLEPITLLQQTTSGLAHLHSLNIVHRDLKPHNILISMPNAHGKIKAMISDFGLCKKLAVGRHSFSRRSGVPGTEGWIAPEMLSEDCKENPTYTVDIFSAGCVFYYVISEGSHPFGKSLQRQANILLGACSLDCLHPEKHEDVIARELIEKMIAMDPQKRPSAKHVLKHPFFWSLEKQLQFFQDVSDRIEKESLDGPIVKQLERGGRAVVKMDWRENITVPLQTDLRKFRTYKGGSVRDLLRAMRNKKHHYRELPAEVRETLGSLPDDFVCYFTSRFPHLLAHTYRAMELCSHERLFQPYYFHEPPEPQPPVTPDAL
Quantity Name: IC50

Reference set, count: 7
Molecule	Endpoint Value
CCN(CC)C(=O)Cc1c(C)c2c3c(c(O)c(C=O)c2oc1=O)OCC3 [Example 9]	< 0.1 µM
Cc1c(CC(=O)N2CCC(F)(F)C2)c(=O)oc2c(C=O)c(O)c3c(c12)CCCO3 [Example 10]	< 0.1 µM
Cc1c(CC(=O)N2CCOCC2)c(=O)oc2c(C=O)c(O)c3c(c12)CCCO3 [Example 3]	< 0.1 µM
Cc1c(CC(=O)N2CCCC2)c(=O)oc2c(C=O)c(O)c3c(c12)CCCO3 [Example 5]	< 0.1 µM
Cc1c(CC(=O)N2CCC3(CC3)C2)c(=O)oc2c(C=O)c(O)c3c(c12)CCCO3 [Example 20]	0.1 to 0.2 µM
Cc1c(CC(N)=O)c(=O)oc2c(C=O)c(O)c3c(c12)CCCO3 [Example 22]	> 0.2 µM
Cc1c(CC(=O)N2CC(F)C2)c(=O)oc2c(C=O)c(O)c3c(c12)CCCO3 [Example 19]	0.1 to 0.2 µM

Ask | Dear colleague, I am looking for the recorded IC50 of the following molecule: Cc1c(CC(=O)N2CCC2)c(=O)oc2c(C=O)c(O)c3c(c12)CCCO3 [Example 13]
Reply | 0.1 to 0.2 µM

====

molecular target: spliced XBP1 mRNA (target of IRE endonuclease) in MCF-7 cancer cells (Homo sapiens, UniProt O75460); construct: tunicamycin ER stress; RT-PCR of spliced XBP1 mRNA (RNase domain activity); test: Spliced XBP1 mRNA Measurement Test (RT-PCR, tunicamycin-induced ER stress, MCF-7 cells); type: cell-based; details: read-out: XBP1 mRNA (IC50), 1 hour pre-treatment with compound, 2 μg/mL tunicamycin 6 or 24 hours, spliced XBP1 corrected by total XBP1
Quantity Name: IC50

Compound	IC50
Cc1c(CC(=O)N2CCN(C)CC2)c(=O)oc2c(C=O)c(O)c3c(c12)CCCO3 [Example 6]	< 0.1 µM

From here, focus on the item given below.
Ask | Sample Cc1c(CC(=O)N2CCN(C(C)C)CC2)c(=O)oc2c(C=O)c(O)c3c(c12)CCCO3 [Example 7] — what was its IC50?
Reply | 0.1 to 0.2 µM

====

molecular target: spliced XBP1 mRNA (target of IRE endonuclease) in MCF-7 cancer cells (Homo sapiens, UniProt O75460); construct: tunicamycin ER stress; RT-PCR of spliced XBP1 mRNA (RNase domain activity); assay: Spliced XBP1 mRNA Measurement Test (RT-PCR, tunicamycin-induced ER stress, MCF-7 cells); format: cell-based; settings: 1 hour pre-treatment with compound, 2 μg/mL tunicamycin 6 or 24 hours, spliced XBP1 corrected by total XBP1, read-out: XBP1 mRNA (IC50)
Entries annotated with measured IC50

Cc1c(CC(=O)N2CCC(C)(C)C2)c(=O)oc2c(C=O)c(O)c3c(c12)CCCO3 100 to 200 nM
Cc1c(CC(=O)N2CCOCC2)c(=O)oc2c(C=O)c(O)c3c(c12)OCO3 100 to 200 nM
CCc1c(CC(=O)N2CCCC2)c(=O)oc2c(C=O)c(O)c3c(c12)CCCO3 > 200 nM
Cc1c(CC(=O)N2CCC(C)CC2)c(=O)oc2c(C=O)c(O)c3c(c12)CCCO3 > 200 nM
Cc1c(CC(=O)N2CCSC2)c(=O)oc2c(C=O)c(O)c3c(c12)CCCO3 < 100 nM
CCNC(=O)Cc1c(C)c2c3c(c(O)c(C=O)c2oc1=O)OCC3 < 100 nM

Ask | Quick check: IC50 of `Cc1c(CC(=O)N2CCCCC2)c(=O)oc2c(C=O)c(O)c3c(c12)CCCO3` ?
Reply | > 200 nM

Ask | Input `CCN(CC)C(=O)Cc1c(C)c2c3c(c(O)c(C=O)c2oc1=O)OCCC3`
Reply | < 100 nM

====

molecular target: spliced XBP1 mRNA (target of IRE endonuclease) in MCF-7 cancer cells (Homo sapiens, UniProt O75460); construct: tunicamycin ER stress; RT-PCR of spliced XBP1 mRNA (RNase domain activity); test: Spliced XBP1 mRNA Measurement Test (RT-PCR, tunicamycin-induced ER stress, MCF-7 cells); type: cell-based; details: 1 hour pre-treatment with compound, 2 μg/mL tunicamycin 6 or 24 hours, spliced XBP1 corrected by total XBP1, read-out: XBP1 mRNA (IC50)
Quantity Name: IC50

Ask | Look up IC50 for this compound: Cc1c(CC(=O)N2CCSCC2)c(=O)oc2c(C=O)c(O)c3c(c12)CCCO3 [Example 28]
Reply | 100 to 200 nM

Ask | For CC(=O)N1CCN(C(=O)Cc2c(C)c3c4c(c(O)c(C=O)c3oc2=O)OCCC4)CC1 [Example 26] then?
Reply | > 200 nM

Ask | Also check CCNC(=O)Cc1c(C)c2c3c(c(O)c(C=O)c2oc1=O)OCCC3 [Example 17]
Reply | < 100 nM

Ask | Subsequent entry: Cc1c(CC(=O)N2CCOCC2)c(=O)oc2c(C=O)c(O)c3c(c12)CCO3 [Example 1]
Reply | < 100 nM

Ask | And what about the compound Cc1c(CC(=O)N2CCNCC2)c(=O)oc2c(C=O)c(O)c3c(c12)CCCO3 [Example 31] ?
Reply | > 200 nM

Ask | Same thing, different compound: COC1CN(C(=O)Cc2c(C)c3c4c(c(O)c(C=O)c3oc2=O)OCCC4)C1 [Example 15]
Reply | 100 to 200 nM

Ask | What about Cc1c(CC(=O)N2CCC(F)C2)c(=O)oc2c(C=O)c(O)c3c(c12)CCCO3 (centres unmarked) [Example 16] ?
Reply | > 200 nM

Ask | Please give the result for Cc1c(CC(=O)N2CCC(C)C2)c(=O)oc2c(C=O)c(O)c3c(c12)CCCO3 (centres unmarked) [Example 11] too.
Reply | < 100 nM

====

molecular target: spliced XBP1 mRNA (target of IRE endonuclease) in MCF-7 cancer cells (Homo sapiens, UniProt O75460); construct: tunicamycin ER stress; RT-PCR of spliced XBP1 mRNA (RNase domain activity); experiment: Spliced XBP1 mRNA Measurement Test (RT-PCR, tunicamycin-induced ER stress, MCF-7 cells); format: cell-based; settings: 1 hour pre-treatment with compound, 2 μg/mL tunicamycin 6 or 24 hours, spliced XBP1 corrected by total XBP1, read-out: XBP1 mRNA (IC50)
pIC50: −log10 of the molar value.
Quantity Name: pIC50

Examples with their reported pIC50 follow.
Compound	Quantity Name	Endpoint Value
COC1CCN(C(=O)Cc2c(C)c3c4c(c(O)c(C=O)c3oc2=O)OCCC4)C1 (centres unmarked) [Example 14]	pIC50	6.70 to 7.00
COCCNC(=O)Cc1c(C)c2c3c(c(O)c(C=O)c2oc1=O)OCCC3 [Example 24]	pIC50	> 7.00
Cc1c(CC(=O)NCCN2CCOCC2)c(=O)oc2c(C=O)c(O)c3c(c12)CCCO3 [Example 29]	pIC50	< 6.70
CC(C)c1c(CC(=O)N2CCCC2)c(=O)oc2c(C=O)c(O)c3c(c12)CCCO3 [Example 23]	pIC50	6.70 to 7.00

Okay, now this compound:
Ask | For the compound shown here, Cc1c(CC(=O)N2CC3CC2CO3)c(=O)oc2c(C=O)c(O)c3c(c12)CCCO3 (centres unmarked) [Example 27] , give the reported pIC50.
Reply | > 7.00
